Readings of IC50 for the listed compounds
- TESTED_ON: Glutamate receptor ionotropic, kainate
- TEST_DESCRIPTION: Binding affinity against Ionotropic glutamate receptor kainate using [3H]-Kainic acid 19755 radioligand
- Type: protein-complex assay
MEASURED_METRIC: IC50 (µM)

                                    compound  unit_info  censoring_sign  experimental_result
 0  O=C(O)[C@H]1C[C@@H]2C[C@H](CCc3nnn[nH]3)CC[C@@H]2CN1         µM               >                  100
 1  O=C(O)[C@@H]1C[C@H]2C[C@@H](CSc3nc[nH]n3)CC[C@H]2CN1         µM               >                   10
 2  O=C(O)[C@@H]1C[C@H]2C[C@@H](CSc3nn[nH]n3)CC[C@H]2CN1 (racemic)         µM               =                 30.1
 3  O=C(O)CC[C@H]1CC[C@H]2CN[C@H](C(=O)O)C[C@H]2C1         µM               >                  100
 4  O=C(O)[C@@H]1C[C@H]2C[C@@H](CSc3nn[nH]n3)CC[C@H]2CN1         µM               =                 15.7
 5  O=C(O)[C@H]1C[C@@H]2C[C@H](CS(=O)(=O)c3nc[nH]n3)CC[C@@H]2CN1         µM               >                  100
 6  O=C(O)[C@@H]1C[C@H]2C[C@H](CSc3nn[nH]n3)CC[C@H]2CN1 (stereo in doubt; (+/-)28)         µM               =                 37.3
 7  O=C(CC[C@H]1CC[C@H]2CN[C@H](C(=O)O)C[C@H]2C1)Nc1nn[nH]n1         µM               >                  100
 8  O=C(O)CC[C@@H]1CC[C@H]2CN[C@H](C(=O)O)C[C@H]2C1         µM               >                  100
 9  O=C(O)[C@@H]1C[C@H]2C[C@@H](CCc3nn[nH]n3)CC[C@H]2CN1 [TEZAMPANEL ANHYDROUS]         µM               =                 28.1
10  CCOC(=O)[C@@H]1C[C@H]2C[C@@H](CCC(=O)NS(C)(=O)=O)CC[C@H]2CN1C(=O)OC         µM               >                  100
11  O=C(O)[C@@H]1C[C@H]2C[C@H](CCS(=O)(=O)O)CC[C@H]2CN1         µM               >                  100
12  O=C(O)[C@@H]1C[C@H]2C[C@@H](CCS(=O)(=O)O)CC[C@H]2CN1         µM               >                  100
13  O=C(O)[C@@H]1C[C@H]2C[C@H](CCc3nnn[nH]3)CC[C@H]2CN1 (stereo in doubt; (+)49)         µM               =                   87
14  O=C(O)[C@@H]1C[C@H]2C[C@@H](Cn3nnnc3S)CC[C@H]2CN1 (racemic)         µM               =                 16.7

---

Readings of IC50 for the listed molecules
- TESTED_ON: Glutamate receptor ionotropic, AMPA (Rattus norvegicus, UniProt P19490+P19491+P19492+P19493)
- TEST_DESCRIPTION: Compound was tested for Ionotropic glutamate receptor AMPA antagonistic activity by measuring its ability to inhibit depolarizations induced by 40 uM AMPA in rat cortical slice preparation.
- Type: functional
MEASURED_METRIC: IC50

>>> df
                                   molecule  experimental_result
0  O=C(O)[C@@H]1C[C@H]2C[C@@H](CSc3nn[nH]n3)CC[C@H]2CN1               1.4 µM
1  O=C(O)[C@@H]1C[C@H]2C[C@@H](CSc3nc[nH]n3)CC[C@H]2CN1              68.8 µM
2  O=C(O)[C@@H]1C[C@H]2C[C@H](CSc3nn[nH]n3)CC[C@H]2CN1 (stereo in doubt; (+/-)28)               6.1 µM
3  O=C(O)[C@@H]1C[C@H]2C[C@@H](CSc3nn[nH]n3)CC[C@H]2CN1 (racemic)              19.8 µM
4  O=C(O)[C@H]1C[C@@H]2C[C@H](CSc3nn[nH]n3)CC[C@@H]2CN1              19.8 µM
5  O=C(O)[C@H]1C[C@@H]2C[C@@H](CSc3nn[nH]n3)CC[C@@H]2CN1                 9 µM
6  O=C(O)[C@@H]1C[C@H]2C[C@H](CSc3nn[nH]n3)CC[C@H]2CN1 (stereo in doubt; (-)28)             > 100 µM

---

Readings of IC50 for the listed compounds
- TESTED_ON: Glutamate NMDA receptor
- TEST_DESCRIPTION: Antagonism at NMDA receptor by inhibition of depolarizations induced by 40 uM NMDA in rat cortical slice preparation.
- Format: functional
MEASURED_METRIC: IC50

>>> df
                                    compound  experimental_result
 0  O=C(O)[C@@H]1C[C@H]2C[C@@H](CCS(=O)(=O)O)CC[C@H]2CN1             > 100 µM
 1  O=C(O)CC[C@H]1CC[C@H]2CN[C@H](C(=O)O)C[C@H]2C1                57 µM
 2  O=C(O)[C@@H]1C[C@H]2C[C@@H](CS(=O)(=O)c3nnc[nH]3)CC[C@H]2CN1 (stereo in doubt; 36)             > 100 µM
 3  CCOC(=O)[C@@H]1C[C@H]2C[C@@H](CCC(=O)NS(=O)(=O)c3ccccc3)CC[C@H]2CN1C(=O)OC             > 100 µM
 4  CCOC(=O)[C@@H]1C[C@H]2C[C@@H](CCP(=O)(OCC)OCC)CC[C@H]2CN1C(=O)OC             > 100 µM
 5  O=C(O)[C@@H]1C[C@H]2C[C@H](CCS(=O)(=O)O)CC[C@H]2CN1             > 100 µM
 6  O=C(O)CC[C@@H]1CC[C@H]2CN[C@H](C(=O)O)C[C@H]2C1             > 100 µM
 7  O=C(O)[C@@H]1C[C@H]2C[C@@H](Cn3nnc(S)n3)CC[C@H]2CN1 (racemic)             > 100 µM
 8  O=C(O)[C@@H]1C[C@H]2C[C@H](CCP(=O)(O)O)CC[C@H]2CN1             > 100 µM
 9  CCOC(=O)[C@@H]1C[C@H]2C[C@@H](CCC(=O)NS(C)(=O)=O)CC[C@H]2CN1C(=O)OC             > 100 µM
10  O=C(O)[C@@H]1C[C@H]2C[C@@H](CNc3nn[nH]n3)CC[C@H]2CN1 (racemic)             > 100 µM
11  CCOC(=O)[C@@H]1C[C@H]2C[C@@H](CCc3cc(OC)no3)CC[C@H]2CN1C(=O)OC             > 100 µM
12  O=C(CC[C@H]1CC[C@H]2CN[C@H](C(=O)O)C[C@H]2C1)Nc1nn[nH]n1                84 µM

---

Readings of IC50 for the listed compounds
- TESTED_ON: Glutamate receptor ionotropic, kainate
- TEST_DESCRIPTION: Antagonism at Ionotropic glutamate receptor kainate by inhibition of depolarizations induced by 10 uM kainic acid in rat cortical slice preparation.
- Type: functional
MEASURED_METRIC: IC50

In [3]: df
Out[3]:
                                   compound  experimental_result
0  O=C(O)[C@@H]1C[C@H]2C[C@H](CCS(=O)(=O)O)CC[C@H]2CN1             > 100 µM
1  O=C(O)CC[C@@H]1CC[C@H]2CN[C@H](C(=O)O)C[C@H]2C1             > 100 µM
2  CCOC(=O)[C@@H]1C[C@H]2C[C@@H](CCP(=O)(OCC)OCC)CC[C@H]2CN1C(=O)OC             > 100 µM
3  O=C(O)[C@@H]1C[C@H]2C[C@H](CCc3nnn[nH]3)CC[C@H]2CN1 (stereo in doubt; (+)49)              28.9 µM
4  O=C(O)[C@@H]1C[C@H]2C[C@@H](Cn3nnc(S)n3)CC[C@H]2CN1 (racemic)             > 100 µM
5  O=C(O)[C@@H]1C[C@H]2C[C@@H](CNc3nn[nH]n3)CC[C@H]2CN1 (racemic)             > 100 µM
6  O=C(O)[C@@H]1C[C@H]2C[C@@H](CCS(=O)(=O)O)CC[C@H]2CN1               100 µM

The reported numbers originate from ChEMBL document CHEMBL1129329.
